From: the supplement of paper PMC10567573

B1: SLC19A2 (parent)
chain: IYPVWTYSYLVLLFPVFLATDYLR

# Variants of: B1
# test: protein stability index of a GFP-peptide fusion (GPS, HEK-293T) (PSI 1-6); higher = more stable;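 also: lentivirally expressed fusions sorted by FACS into six bins by GFP to DsRed ratio, PSI derived from sequencing read proportions per bin multiplied by bin number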
# condition notes: c terminus: a fixed tail appended
parameter: protein stability index
Write the number on its own, no unit after it.

query: Entry L18E : reported protein stability index = ?
result: 3.06

query: Entry L13V : reported protein stability index = ?
result: 3.06

query: Entry L13D : reported protein stability index = ?
result: 3.57

query: Entry D21F : reported protein stability index = ?
result: 2.61

query: Entry L23M : reported protein stability index = ?
result: 3.02

query: Entry P3N : reported protein stability index = ?
result: 2.57

query: Entry T20S : reported protein stability index = ?
result: 2.33

query: Entry L23H : reported protein stability index = ?
result: 2.11

query: Entry Y22S : reported protein stability index = ?
result: 3.06

query: Entry Y9D : reported protein stability index = ?
result: 3.8

query: Entry Y7H : reported protein stability index = ?
result: 1.33

query: Entry L13C : reported protein stability index = ?
result: 2.38

query: Entry Y22F : reported protein stability index = ?
result: 3.76

query: Entry A19L : reported protein stability index = ?
result: 3.29

query: Entry S8C : reported protein stability index = ?
result: 3.17

query: Entry A19T : reported protein stability index = ?
result: 1.57

query: Entry V16H : reported protein stability index = ?
result: 4.12

query: Entry D21P : reported protein stability index = ?
result: 2.63

query: Entry L18T : reported protein stability index = ?
result: 2.54

query: Entry T6L : reported protein stability index = ?
result: 4.55

query: Entry V11L : reported protein stability index = ?
result: 2.77

query: Entry P3E : reported protein stability index = ?
result: 2.5
